Below: a set of entries, each annotated with reported T/P (Tumor/Plasma ratio).
System: NCI-H460 tumor-bearing mice (lung cancer)
Assay: Biodistribution: lutetium accumulation in tumor, plasma and healthy tissues by ICP-MS
Type: in vivo
Settings: 24 h
Lab note: record just the number, no unit beside it.

# annotated cases, reported T/P (Tumor/Plasma ratio) shown
CCNC(=O)c1nnc(-c2cc(C(C)C)c(O)cc2O)n1-c1ccc(CN2CCN(C(=O)C[C@H](NC(=O)CCNC(=O)[C@@H](CO)NC(=O)[C@@H](CO)NC(=O)[C@@H](CO)NC(=O)CC[C@H](C(=O)O)N3CCN4CCN5CCN(CC3)CC(=O)[O][Lu]([O]C(=O)C5)[O]C(=O)C4)C(=O)N[C@H](C)C(=O)N3CCN(Cc4ccc(-n5c(C(=O)NCC)nnc5-c5cc(C(C)C)c(O)cc5O)cc4)CC3)CC2)cc1
4.87
CCNC(=O)c1nnc(-c2cc(C(C)C)c(O)cc2O)n1-c1ccc(OC2CCN(C(=O)CCNC(=O)[C@@H](CCC(=O)N3CCC(Oc4ccc(-n5c(C(=O)NCC)nnc5-c5cc(C(C)C)c(O)cc5O)cc4)CC3)NC(=O)CCOCCOCCOCCOCCOCCOCCOCCOCCOCCOCCOCCOCCNC(=O)CN3CCN4CCN5CCN(CC3)CC(=O)[O][Lu]([O]C(=O)C4)[O]C(=O)C5)CC2)cc1
7.34

// next item, T/P (Tumor/Plasma ratio) requested
Please report the measured T/P (Tumor/Plasma ratio) for `CCNC(=O)c1nnc(-c2cc(C(C)C)c(O)cc2O)n1-c1ccc(C2CCN(C(=O)CCOCCOCCOCCOCCOCCOCCOCCOCCOCCOCCOCCOCCNC(=O)CN3CCN4CCN5CCN(CC3)CC(=O)[O][Lu]([O]C(=O)C4)[O]C(=O)C5)CC2)cc1` 5.11

Each recorded value in this set is attributed to patent US20260166158A1.
